system: gram negative bacteria; experiment: In vitro anti-bacterial activity assay (broth dilution MIC), gram negative bacteria; type: cell-based, E. coli; details: Escherichia coli, 18 h, E. coli MG 1655; read-out: Median MIC's G− E. coli MG 1655
VALUE_TYPE: MIC (µg/mL)

>>> experimental_value("CN1CCN(C(=O)c2cccc(-c3ccc(O)c4c3C[C@H]3C[C@H]5[C@H](N(C)C)C(O)=C(C(N)=O)C(=O)[C@@]5(O)C(O)=C3C4=O)c2)CC1 [C]")
32
>>> experimental_value("CN(C)CC/C(=N\\OC(C)(C)C)c1ccc(O)c2c1C[C@H]1C[C@H]3[C@H](N(C)C)C(O)=C(C(N)=O)C(=O)[C@@]3(O)C(O)=C1C2=O [CJ]")
2
>>> experimental_value("CN(C)[C@@H]1C(O)=C(C(N)=O)C(=O)[C@@]2(O)C(O)=C3C(=O)c4c(O)ccc(C(=O)CNCc5cccn5C)c4C[C@H]3C[C@@H]12 [CE]")
4
>>> experimental_value("CN(C)CCN(C)Cc1cccc(-c2ccc(O)c3c2C[C@H]2C[C@H]4[C@H](N(C)C)C(O)=C(C(N)=O)C(=O)[C@@]4(O)C(O)=C2C3=O)c1 [CT]")
2
>>> experimental_value("CC(C)N1CCN(CC(=O)c2ccc(O)c3c2C[C@H]2C[C@H]4[C@H](N(C)C)C(O)=C(C(N)=O)C(=O)[C@@]4(O)C(O)=C2C3=O)CC1 [BX]")
8
>>> experimental_value("CC(=O)N1CCN(CC(=O)c2ccc(O)c3c2C[C@H]2C[C@H]4[C@H](N(C)C)C(O)=C(C(N)=O)C(=O)[C@@]4(O)C(O)=C2C3=O)CC1 [BS]")
32
>>> experimental_value("CN(C)[C@@H]1C(O)=C(C(N)=O)C(=O)[C@@]2(O)C(O)=C3C(=O)c4c(O)ccc(C(=O)CNCC(F)(F)F)c4C[C@H]3C[C@@H]12 [BT]")
8
>>> experimental_value("CN(C)[C@@H]1C(O)=C(C(N)=O)C(=O)[C@@]2(O)C(O)=C3C(=O)c4c(O)ccc(-c5cccc(C(=O)NCCN)c5)c4C[C@H]3C[C@@H]12 [N]")
64
>>> experimental_value("CN(C)[C@@H]1C(O)=C(C(N)=O)C(=O)[C@@]2(O)C(O)=C3C(=O)c4c(O)ccc(-c5cccc(C(=O)NCCN6CCOCC6)c5)c4CC3CC12 (some centres unmarked) [DC]")
8
>>> experimental_value("CC(C)N(CCNC(=O)c1cccc(-c2ccc(O)c3c2C[C@H]2C[C@H]4[C@H](N(C)C)C(O)=C(C(N)=O)C(=O)[C@@]4(O)C(O)=C2C3=O)c1)C(C)C [T]")
16
>>> experimental_value("CN(C)CCNC(=O)c1ccc(-c2ccc(O)c3c2C[C@H]2C[C@H]4[C@H](N(C)C)C(O)=C(C(N)=O)C(=O)[C@@]4(O)C(O)=C2C3=O)cc1 [AD]")
8
